tested_on: Rap guanine nucleotide exchange factor 3 (Homo sapiens) (UniProt O95398)
Sequence (O95398 whole entry, looked up): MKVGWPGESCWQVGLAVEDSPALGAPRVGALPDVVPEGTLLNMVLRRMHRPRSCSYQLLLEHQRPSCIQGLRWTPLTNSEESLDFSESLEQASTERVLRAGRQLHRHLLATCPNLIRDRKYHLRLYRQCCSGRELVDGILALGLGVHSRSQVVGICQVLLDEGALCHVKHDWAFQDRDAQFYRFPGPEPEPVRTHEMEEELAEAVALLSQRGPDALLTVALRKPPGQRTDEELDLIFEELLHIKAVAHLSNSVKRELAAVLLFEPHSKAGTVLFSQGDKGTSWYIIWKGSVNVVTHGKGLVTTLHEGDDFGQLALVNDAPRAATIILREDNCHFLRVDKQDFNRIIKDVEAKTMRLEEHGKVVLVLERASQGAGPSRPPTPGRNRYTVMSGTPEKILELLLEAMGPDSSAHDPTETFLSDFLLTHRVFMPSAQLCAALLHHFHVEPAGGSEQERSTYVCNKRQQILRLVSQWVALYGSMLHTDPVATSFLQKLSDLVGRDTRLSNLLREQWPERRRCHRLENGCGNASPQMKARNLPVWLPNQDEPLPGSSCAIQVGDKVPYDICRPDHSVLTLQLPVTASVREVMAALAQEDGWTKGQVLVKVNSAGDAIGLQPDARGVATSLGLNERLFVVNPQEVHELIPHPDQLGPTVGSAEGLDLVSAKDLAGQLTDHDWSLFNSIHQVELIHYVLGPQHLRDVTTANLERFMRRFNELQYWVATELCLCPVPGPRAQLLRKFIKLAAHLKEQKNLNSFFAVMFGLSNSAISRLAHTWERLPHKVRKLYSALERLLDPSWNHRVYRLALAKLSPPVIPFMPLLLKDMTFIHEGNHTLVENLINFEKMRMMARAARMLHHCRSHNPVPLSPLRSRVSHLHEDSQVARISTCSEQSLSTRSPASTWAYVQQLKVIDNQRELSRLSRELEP
method: Confirmatory qHTS for antagonist of cAMP-regulated guanine nucleotide exchange factor 3 (EPAC1) (AID 1645880); further: nearly all actives have a fitted effect of over 55% in size
assay_setup: EPAC1 Rap1B-BODIPY-GDP exchange, fluorescence
Records with an inconclusive call do not appear. Active and inactive are the calls of the source. The call rests on the fitted dose curve; in most records, active means well fitted inhibition curve with a large enough effect; inconclusive means small, poorly fitted or top-dose-only effect; inactive means no such curve, though single readings can be large or run the other way.
Please answer using one outcome listed in true (1) = active, false (0) = inactive

How was `O=c1oc2cc(O)ccc2cc1-c1nnc(Nc2ccccc2F)s1` classified in this test?
false (0)

How was Cc1ccccc1NC1c2ccccc2C(=O)N1Cc1ccco1 (stereo not drawn) classified in this test?
false (0)

How was `COC(=O)c1cc(Br)c(=O)n(CCc2ccc(F)cc2)c1` classified in this test?
false (0)

How was COc1ccc(C2CC(c3ccccc3OC(C)=O)=NN2C(C)=O)cc1 (stereo not drawn) classified in this test?
false (0)

How was CCOC(=O)C1=C(N)c2ccccc2CC1C1CCCC1 (stereo not drawn) classified in this test?
false (0)

How was `O=C1NC(=S)S/C1=C\c1coc2ccc(O)cc2c1=O` classified in this test?
true (1)

How was `Cc1ccc2oc(C(=O)N3CCCCCC3)c(C)c2c1` classified in this test?
false (0)

How was `Cc1cc(C)cc(NC(=O)CSc2nnc(-c3cc4occc4n3C)n2-c2ccccc2C)c1` classified in this test?
false (0)

How was `COc1cc2c3nnc(-c4ccc(F)cc4)c-3cn(Cc3cccc(C)c3)c2cc1OC` classified in this test?
false (0)

How was `COc1ccc(C)cc1CN1C(=O)c2ccccc2C1=O` classified in this test?
false (0)

How was `COC(=O)c1cccc(F)c1C(=O)c1cccc2ccccc12` classified in this test?
false (0)

How was `COc1ccccc1CN(C)CC(=O)Nc1ccccc1-c1ccccc1` classified in this test?
false (0)

How was `CCN1CCc2c(sc(NC(=O)c3ccc(S(=O)(=O)N4CCCCCC4)cc3)c2C(=O)NC)C1` classified in this test?
false (0)

How was `Cc1ccc(OCCn2c(=O)n(C)c3ccccc32)cc1` classified in this test?
false (0)

How was N#CC(Sc1ccccn1)c1ccc(Cl)cc1Cl (stereo not drawn) classified in this test?
false (0)

How was `O=C(NCc1cccc(F)c1)c1cccc2c1C(=O)c1ccc(N3CCOCC3)cc1S2(=O)=O` classified in this test?
false (0)

How was `CN(Cc1ccc(Cl)cc1Cl)C(=O)CN1C(=O)NC2(CCCC2)C1=O` classified in this test?
false (0)

How was `COc1ccc(N2CCN(CCCNC(=O)c3ccc4nc(CCc5ccccc5)oc4c3)CC2)cc1` classified in this test?
false (0)

* * *

tested_on: Rap guanine nucleotide exchange factor 3 (Homo sapiens) (UniProt O95398)
method: Confirmatory qHTS for antagonist of cAMP-regulated guanine nucleotide exchange factor 3 (EPAC1) (AID 1645880); further: nearly all actives have a fitted effect of over 55% in size
assay_setup: EPAC1 Rap1B-BODIPY-GDP exchange, fluorescence
Records with an inconclusive call do not appear. Activity calls are given as the source filed them. The call rests on the fitted dose curve; in most records, active means well fitted inhibition curve with a large enough effect; inconclusive means small, poorly fitted or top-dose-only effect; inactive means no such curve, though single readings can be large or run the other way.
Please answer using one outcome listed in active, inactive

How was `O=C1C=C(c2c(O)ccc3ccccc23)c2ccccc2C1=O` classified in this test?
active

How was `O=C(Nc1ncccc1O)c1ccc2c(c1)OCCO2` classified in this test?
inactive

How was `O=C(N/N=C/c1cccnc1)c1cc(-c2ccccc2OCc2ccccc2)n[nH]1` classified in this test?
inactive

How was `CCSc1nnc(-c2sc3nnc(-c4ccccc4)c(-c4ccccc4)c3c2N)o1` classified in this test?
inactive

How was `Clc1cccc(-c2ccc3nccn3c2)c1Cl` classified in this test?
inactive

How was `CCOC(=O)c1sc2nc3c(SCC(=O)O)cc(C(=O)c4cc(F)ccc4O)cn3c(=O)c2c1C` classified in this test?
active

How was `Cc1ccc(S(=O)(=O)N2[C@@H](c3ccccc3)C(C(=O)O)=CC[C@H]2c2ccc(C(C)C)cc2)cc1` classified in this test?
active

How was `CC(=O)CCc1oc2c([N+](=O)[O-])cccc2c1-c1ccc(C)o1` classified in this test?
inactive

* * *

tested_on: Rap guanine nucleotide exchange factor 3 (Homo sapiens)
method: Confirmatory qHTS for antagonist of cAMP-regulated guanine nucleotide exchange factor 3 (EPAC1) (AID 1645880); further: nearly all actives have a fitted effect of over 55% in size; further: potency means the concentration at half of the fitted maximal effect
assay_setup: EPAC1 Rap1B-BODIPY-GDP exchange, fluorescence
Inconclusive results are not listed. Calls of active or inactive are those of the source. Calls come from the whole dose curve; as a rule, active = well fitted inhibition curve with a large enough effect; inconclusive = small, poorly fitted or top-dose-only effect; inactive = no such curve, though single readings can be large or run the other way.
reported_property: Potency

Sure, the documented Potency for CC(=O)N1N=C2c3ccccc3CCC2C1c1cccs1 (stereo not given) is inactive

Sure, the documented Potency for `COc1ccc(-c2nc(C)ncc2-c2ccccc2)c(O)c1` is inactive

Sure, the documented Potency for Cn1c(C(O)c2ccc(Br)cc2)nc(Cl)c1Cl (stereo not given) is inactive

Sure, the documented Potency for `Cc1ccc(S(=O)(=O)/N=C2\C=C(NS(=O)(=O)c3ccccc3)C(=O)c3ccccc32)cc1` is 26.9 µM (active)

Sure, the documented Potency for `Cc1cc(C)c(S(=O)(=O)c2ccccc2C)c(SCC(C)C)n1` is inactive

***
Sure, the documented Potency for `Oc1ccc2nnc3c(Br)cnn3c2c1` is inactive

Sure, the documented Potency for `Oc1[nH]c2ccc(Br)cc2c1N=Nc1ccc(F)cc1` is 84.9 µM (active)

Sure, the documented Potency for `CNc1ccc2c3c(cccc13)C(=O)N(C)C2=O` is inactive

Sure, the documented Potency for `O=C1CCNc2ccc(-c3ccccc3)cc21` is inactive

Sure, the documented Potency for COc1ccc2c(c1)C(=O)CCC2c1ccccc1 (stereo not given) is inactive

* * *

tested_on: Rap guanine nucleotide exchange factor 3 (Homo sapiens)
method: Counterscreen qHTS for antagonist of cAMP-regulated guanine nucleotide exchange factor 3 (EPAC1) (AID 1645888);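 further: fluorescence loss as bound BODIPY-GDP is released from Rap1B; % of control where 0% means no effect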
assay_setup: Rap1B-BODIPY-GDP nucleotide exchange, fluorescence; series mostly up to 154 µM
Results filed as inconclusive are left out. Active and inactive are the calls of the source. The call rests on the fitted dose curve; in most records, active means well fitted inhibition curve with a large enough effect; inconclusive means small, poorly fitted or top-dose-only effect; inactive means no such curve, though single readings can be large or run the other way.
reported_property: activity change, negative = inhibition

Completed entries (count: 10):
Sure, the documented activity change, negative = inhibition for `Cc1nn(-c2ccc(F)cc2)c(-n2cccc2)c1C(=O)N1CCN(c2ccc(F)cc2)CC1` is inactive

Sure, the documented activity change, negative = inhibition for CC(C)c1ccc(C2=CC(c3cccc(Cl)c3)n3ncnc3N2)cc1 (stereo not given) is inactive

Sure, the documented activity change, negative = inhibition for Cc1ccc2nc(N3C(=O)C(O)=C(C(=O)c4ccc(C)o4)C3c3ccc(O)cc3)sc2c1 (stereo not given) is inactive

Sure, the documented activity change, negative = inhibition for `C=C1SC(Nc2c(C)cc(C)cc2C)=NC12CCCCC2` is inactive

Sure, the documented activity change, negative = inhibition for `Nc1[nH]n2c(=O)cc(-c3ccccc3)nc2c1N=Nc1ccc(S(N)(=O)=O)cc1` is inactive

Sure, the documented activity change, negative = inhibition for `COc1cc(N)ccc1-c1cc2ccccc2oc1=O` is inactive

Sure, the documented activity change, negative = inhibition for `Cc1cc2c(C)nc(N/N=C/c3ccc(F)cc3)nc2o1` is inactive

Sure, the documented activity change, negative = inhibition for CCc1ccc(OCC2c3cc(OC)c(OC)cc3CCN2C(C)=O)cc1 (stereo not given) is inactive

Sure, the documented activity change, negative = inhibition for Cc1ccc2oc(C(=O)N(Cc3ccc(N(C)C)cc3)CC3CCCO3)c(C)c2c1 (stereo not given) is inactive

Sure, the documented activity change, negative = inhibition for `Cc1cccc(C(=O)N=c2c(C#N)cc3c(=O)n4cccc(C)c4nc3n2Cc2ccco2)c1` is inactive

***
Sure, the documented activity change, negative = inhibition for `COC(=O)C1=CN(Cc2cccs2)C=C(C(=O)OC)C1c1cccc(Cl)c1` is -4.15% [at 30.8 µM] (inactive)

Sure, the documented activity change, negative = inhibition for `Cc1ccc(-c2cc(C(=O)Nc3ccc(S(=O)(=O)Nc4onc(C)c4C)cc3)c3ccccc3n2)cc1` is 1.26% [at 30.8 µM] (inactive)

Sure, the documented activity change, negative = inhibition for Cc1ccccc1NC1c2ccccc2C(=O)N1Cc1ccco1 (stereo not given) is -11.4% [at 30.8 µM] (inactive)

Sure, the documented activity change, negative = inhibition for `CN(C)c1ccc(C=C(C#N)C(=O)c2ccccc2)cc1Br` is inactive

Sure, the documented activity change, negative = inhibition for `O=C(CSc1nc(-c2cccs2)nc2cc(=O)[nH]n12)Nc1cccc(C(F)(F)F)c1` is inactive

* * *

tested_on: Rap guanine nucleotide exchange factor 3 (Homo sapiens) (UniProt O95398)
method: Counterscreen qHTS for antagonist of cAMP-regulated guanine nucleotide exchange factor 3 (EPAC1) (AID 1645888);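 further: fluorescence loss as bound BODIPY-GDP is released from Rap1B; % of control where 0% means no effect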
assay_setup: Rap1B-BODIPY-GDP nucleotide exchange, fluorescence; series mostly up to 154 µM
Records with an inconclusive call do not appear. Activity calls are given as the source filed them. The call rests on the fitted dose curve; in most records, active means well fitted inhibition curve with a large enough effect; inconclusive means small, poorly fitted or top-dose-only effect; inactive means no such curve, though single readings can be large or run the other way.
reported_property: activity change, negative = inhibition

Sure, the documented activity change, negative = inhibition for `C/C(=N/NS(=O)(=O)c1ccc(C(C)(C)C)cc1)c1ccc2c(c1)OCO2` is -17.7% [at 30.8 µM] (inactive)

Sure, the documented activity change, negative = inhibition for CCCCn1nnnc1C(c1cc2ccccc2o1)N1CCN(c2cc(C)nc3ccccc23)CC1 (stereo unspecified) is inactive

Sure, the documented activity change, negative = inhibition for `Fc1ccc2cnc(-c3ccccc3)c(-c3ccc(C(F)(F)F)cc3)c2c1` is inactive

Sure, the documented activity change, negative = inhibition for `CC(C)Nc1nc(NC(C)C)nc(OCCOC(=O)c2ccccc2)n1` is inactive

Sure, the documented activity change, negative = inhibition for `Cc1cccc(N2C(=O)c3cccc4c(N(C)CCO)ccc(c34)C2=O)c1` is inactive

Now consider a different molecule.
Sure, the documented activity change, negative = inhibition for COc1ccc(Cl)cc1NC(=O)CN(C)C(C)C(=O)NC(=O)NC1CCCCC1 (stereo unspecified) is inactive
